# assayed system: MMP-13CD (catalytic domain of collagenase-3) (Homo sapiens)
# method notes: Thiopeptolide substrate hydrolysis inhibition assay, MMP-13CD
# Format: biochemical
# condition summary: Table I; thiopeptolide substrate, HEPES pH 7.0, 22° C.; read-out: MMP-13CD IC50
We begin with a simple list: items and their reported IC50.

compound | result
CC(NC(=O)c1cc2c(=O)n(Cc3ccccc3)c(=O)n(C)c2s1)c1ccccc1 (centres unmarked) | > 100 µM
CC(CNC(=O)c1cc2c(=O)n(Cc3ccccc3)c(=O)n(C)c2s1)c1ccccc1 (centres unmarked) | > 100 µM
Cn1c(=O)n(Cc2ccccc2)c(=O)c2cc(C(=O)OCC3COc4ccccc4O3)sc21 (centres unmarked) | > 100 µM
Cn1c(=O)n(Cc2ccccc2)c(=O)c2cc(C(=O)NC3CCc4ccccc43)sc21 (centres unmarked) | > 100 µM

Exam item: Could you share what IC50 was measured for Cn1c(=O)n(Cc2ccccc2)c(=O)c2cc(C(=O)NCc3ccc(N)cc3)sc21 , tested on MMP-13CD (catalytic domain of collagenase-3) (Homo sapiens)?
Marked response: > 100 µM

Source listed as patent US20030004172A1.
